target: UniProtKB Q8NIN8; experiment: Quenching of CpLIP2 intrinsic tryptophan fluorescence by flavonols (Stern–Volmer, Lehrer, van't Hoff analysis); type: binding; conditions: 298 K; Lehrer equation
Sequence (Q8NIN8 entry or part of it): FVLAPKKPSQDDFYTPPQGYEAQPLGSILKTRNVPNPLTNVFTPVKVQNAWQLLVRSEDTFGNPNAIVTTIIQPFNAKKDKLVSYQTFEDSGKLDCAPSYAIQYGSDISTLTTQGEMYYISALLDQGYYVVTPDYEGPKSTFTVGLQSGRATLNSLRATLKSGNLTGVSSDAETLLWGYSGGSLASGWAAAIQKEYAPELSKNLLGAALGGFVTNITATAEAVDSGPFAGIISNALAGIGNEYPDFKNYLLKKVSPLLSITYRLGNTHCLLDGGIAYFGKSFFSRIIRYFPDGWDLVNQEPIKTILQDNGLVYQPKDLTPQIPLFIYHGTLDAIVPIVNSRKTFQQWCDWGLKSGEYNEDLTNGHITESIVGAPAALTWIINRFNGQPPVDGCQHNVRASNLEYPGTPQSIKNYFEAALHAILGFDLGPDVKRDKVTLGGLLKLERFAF
EXPERIMENTAL READOUT: KSV (accessible), Stern–Volmer quenching constant of the exposed W residues (L/mol)

{"columns": ["STRUCTURE SMILES STRING", "UNITS OF MEASURE", "VAL"],
 "data": [
  ["O=c1c(O)c(-c2cc(O)c(O)c(O)c2)oc2cc(O)cc(O)c12", "L/mol", 290000],
  ["O=c1c(O)c(-c2ccccc2)oc2cc(O)cc(O)c12", "L/mol", 360000],
  ["O=c1c(O)c(-c2ccc(O)cc2)oc2cc(O)cc(O)c12", "L/mol", 140000],
  ["O=c1c(O)c(-c2ccc(O)c(O)c2)oc2cc(O)cc(O)c12", "L/mol", 70000]
]}
